# STUDY_SYSTEM: human Topo IIα (Homo sapiens, UniProt P11388)
# Sequence (P11388 whole entry): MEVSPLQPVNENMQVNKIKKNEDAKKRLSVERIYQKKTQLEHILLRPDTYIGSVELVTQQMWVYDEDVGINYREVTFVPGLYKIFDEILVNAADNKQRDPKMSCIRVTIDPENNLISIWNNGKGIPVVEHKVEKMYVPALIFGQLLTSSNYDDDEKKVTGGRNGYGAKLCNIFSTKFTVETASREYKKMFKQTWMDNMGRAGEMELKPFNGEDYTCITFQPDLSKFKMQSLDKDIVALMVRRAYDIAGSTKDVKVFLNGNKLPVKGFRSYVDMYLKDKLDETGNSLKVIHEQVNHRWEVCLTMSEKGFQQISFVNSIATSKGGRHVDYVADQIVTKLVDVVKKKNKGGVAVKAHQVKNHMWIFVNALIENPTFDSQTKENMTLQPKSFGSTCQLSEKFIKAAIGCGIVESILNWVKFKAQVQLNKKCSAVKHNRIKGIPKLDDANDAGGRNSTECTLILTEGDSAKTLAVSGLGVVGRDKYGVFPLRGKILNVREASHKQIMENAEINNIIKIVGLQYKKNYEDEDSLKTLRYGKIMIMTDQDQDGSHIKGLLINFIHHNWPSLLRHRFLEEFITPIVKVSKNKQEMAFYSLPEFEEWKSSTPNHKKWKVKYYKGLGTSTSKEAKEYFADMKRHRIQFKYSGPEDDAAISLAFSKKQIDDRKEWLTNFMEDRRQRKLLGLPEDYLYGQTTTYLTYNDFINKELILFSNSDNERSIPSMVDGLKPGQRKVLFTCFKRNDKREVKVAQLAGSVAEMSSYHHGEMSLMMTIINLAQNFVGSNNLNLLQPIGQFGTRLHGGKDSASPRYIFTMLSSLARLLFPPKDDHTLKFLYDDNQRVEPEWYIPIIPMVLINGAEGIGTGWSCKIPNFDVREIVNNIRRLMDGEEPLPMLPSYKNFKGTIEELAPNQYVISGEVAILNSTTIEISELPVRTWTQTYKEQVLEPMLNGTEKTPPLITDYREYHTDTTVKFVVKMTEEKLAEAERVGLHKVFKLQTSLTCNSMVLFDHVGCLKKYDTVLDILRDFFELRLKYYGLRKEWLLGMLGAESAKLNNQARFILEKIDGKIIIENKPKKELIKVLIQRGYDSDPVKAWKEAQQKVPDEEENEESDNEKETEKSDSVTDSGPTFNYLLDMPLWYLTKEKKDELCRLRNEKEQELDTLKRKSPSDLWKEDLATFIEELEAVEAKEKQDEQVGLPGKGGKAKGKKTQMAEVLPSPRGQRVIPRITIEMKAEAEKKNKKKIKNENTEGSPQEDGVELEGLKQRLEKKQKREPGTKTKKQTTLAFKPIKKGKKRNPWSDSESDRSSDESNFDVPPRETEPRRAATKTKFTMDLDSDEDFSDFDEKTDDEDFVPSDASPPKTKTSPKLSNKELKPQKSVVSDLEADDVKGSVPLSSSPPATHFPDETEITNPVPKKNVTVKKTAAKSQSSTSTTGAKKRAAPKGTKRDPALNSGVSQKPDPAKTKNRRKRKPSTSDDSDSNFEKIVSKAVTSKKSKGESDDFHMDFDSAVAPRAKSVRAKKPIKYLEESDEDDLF
MEASUREMENT_LABEL: IC50 (µM)
Give the value, in units of µM, as a plain number.

### Prompt # get_value(readout='IC50', item= CCN(CC)CCCC(C)Nc1c2ccc(Cl)cc2nc2ccc(OC)cc12 (stereo not shown) )
### Response 6.18

* * *

# STUDY_SYSTEM: hTopo IIα ATPase (Homo sapiens, UniProt P11388)
# Construct: gene TOP2A; ATPase region, residues 29-428 (400 residues), N-terminal 6xHis, pET28a, E. coli BL21 (DE3)
# PROTOCOL: malachite green ATPase assay
# Format: biochemical
# TEST_CONDITIONS: 100 µM; […] ATP, […] MgCl2, pH […] °C, […] min; relative inhibition rate, not absolute inhibition
Lab note: anything with Topo II ATPase RIR (%) * at or over 90% counts as Fulfilled; the rest go in Not fulfilled.

1. CCCCCCCCCCCCC/C=C/[C@@H](O)[C@@H](N)CO; Fulfilled

### Prompt Identify whether the reported Topo II ATPase RIR (%) * of the following compound is 90% or greater: `CCCc1nc2c(C)cc(-c3nc4ccccc4n3C)cc2n1Cc1ccc(-c2ccccc2C(=O)O)cc1`
### Response Not fulfilled

### Prompt Determine whether measured Topo II ATPase RIR (%) * meets or exceeds 90% for `O=c1c(-c2ccc(O)cc2)coc2cc(O)ccc12`
### Response Fulfilled

### Prompt Reported Topo II ATPase RIR (%) * at or above 90%? `Cn1cc(C2=C(c3cn(CCCSC(=N)N)c4ccccc34)C(=O)NC2=O)c2ccccc21`
### Response Fulfilled

### Prompt Entry N#C/C(=C\c1ccc(O)c(O)c1)C(=O)NCc1ccccc1 [K−D1, AG−490] : is its Topo II ATPase RIR (%) * no less than 90%?
### Response Not fulfilled

### Prompt Hello, I need to know if `N#CC(C#N)=C(N)/C(C#N)=C/c1cc(O)c(O)c(O)c1` has measured Topo II ATPase RIR (%) * not below 90%. Thanks!
### Response Not fulfilled

### Prompt Exam item: decide whether the reported Topo II ATPase RIR (%) * for `CN[C@@H]1C[C@H]2O[C@@](C)([C@@H]1OC)n1c3ccccc3c3c4c(c5c6ccccc6n2c5c31)C(=O)NC4` is at least 90%.
### Response Fulfilled

### Prompt Would you say `Oc1cc(O)cc(/C=C/c2ccc(O)c(O)c2)c1` shows Topo II ATPase RIR (%) * at minimum 90%?
### Response Not fulfilled

### Prompt Is it the case that CCN(CC)CCCC(C)Nc1c2ccc(Cl)cc2nc2ccc(OC)cc12 (stereo not shown) has Topo II ATPase RIR (%) * reaching or exceeding 90%?
### Response Not fulfilled

These entries and their values trace back to paper PMC9458065.
